# log10 of IC50 per entry
Biological target: PDE4B2 (Homo sapiens)
Construct: made in house; host or cells: SF21 insect cells (baculovirus prepared in SF9 cells; pCR-Bac vector)
Sequence (Q07343 1-564 isoform Q07343-2): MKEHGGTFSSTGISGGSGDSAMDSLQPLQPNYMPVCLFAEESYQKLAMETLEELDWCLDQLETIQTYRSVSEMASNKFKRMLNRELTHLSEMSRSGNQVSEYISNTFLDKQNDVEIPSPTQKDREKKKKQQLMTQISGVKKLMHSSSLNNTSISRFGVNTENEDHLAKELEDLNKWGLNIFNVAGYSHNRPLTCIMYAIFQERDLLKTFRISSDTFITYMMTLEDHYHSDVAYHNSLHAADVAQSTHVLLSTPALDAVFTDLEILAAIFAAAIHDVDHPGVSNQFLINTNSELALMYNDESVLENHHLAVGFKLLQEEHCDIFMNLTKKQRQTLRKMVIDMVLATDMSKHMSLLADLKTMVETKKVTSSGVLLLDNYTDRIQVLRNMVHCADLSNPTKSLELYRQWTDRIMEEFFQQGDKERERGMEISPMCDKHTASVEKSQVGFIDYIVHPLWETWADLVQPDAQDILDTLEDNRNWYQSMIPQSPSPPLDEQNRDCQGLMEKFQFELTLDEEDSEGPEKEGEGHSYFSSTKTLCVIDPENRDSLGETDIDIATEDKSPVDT
Test: Inhibition of PDE4B2 activity, modified [3H]cAMP SPA enzyme assay
Type: biochemical
Conditions: recombinant PDE4B2 (GB no. M97515) expressed in SF21 cells; 0.5 μM cAMP; 15 min at 37° C.; read-out: PDE4 Inhibition [measured as −logIC50 (mol/l)] (converted)
READOUT LABEL: log10 of IC50 (log10 of the value in nM)

COc1ccc(C2=NN(c3ccc(C(=O)N4CCN(CC(=O)N5CCCC5)CC4)cc3)C(=O)C(C)(C)C2)cc1OC.Cl [Compound 8, hydrochloride]	0.88
COc1ccc(C2=NN(c3ccc(OCC(N)=O)cc3)C(=O)C(C)(C)C2)cc1OC	1.02
COc1ccc(C2=NN(c3ccc(O)cc3)C(=O)C(C)(C)C2)cc1OC	0.78
COc1ccc(C2=NN(c3ccc(OCC(=O)N4CCOCC4)cc3)C(=O)C(C)(C)C2)cc1OC	1.19
COc1ccc(C2=NN(c3ccc(C(=O)N4CCN(c5ccncc5)CC4)cc3)C(=O)C(C)(C)C2)cc1OC.Cl.Cl [Compound 4, dihydrochloride]	0.89
COc1ccc(C2=NN(c3ccc(C(=O)N4CCOCC4)cc3)C(=O)C(C)(C)C2)cc1OC	0.24
COc1ccc(C2=NN(c3ccc(C(=O)O)cc3)C(=O)C(C)(C)C2)cc1OC	1.51
COc1ccc(C2=NN(c3ccc(OCc4ccccc4)cc3)C(=O)C(C)(C)C2)cc1OC	0.60
COc1ccc(C2=NN(c3ccc(C(=O)N4CCN(CCN5CCOCC5)CC4)cc3)C(=O)C(C)(C)C2)cc1OC.Cl.Cl [Compound 3, dihydrochloride]	1.05
